- study.target: beta-catenin-B-cell lymphoma 9 protein complex (Homo sapiens) (UniProt P35222+O00512)
- test.protocol: Inhibition of protein interaction between beta-catenin (unknown origin)/BCL9 in HEK293 cells transfected with beta-catenin assessed as reduction in Wnt/beta-catenin transactivation incubated for 24 hrs by Wnt-responsive FOP-Flash luciferase reporter assay
- Format: cell-based
Active and inactive are the calls of the source. No cut-off for these calls is given here.
Please reply with one of these outcomes: active, inactive

Which outcome was assigned to Cl.Cl.O=C(Nc1ccc(O[C@H]2CCNC2)c(-c2ccc(F)cc2)c1)c1ccc(O[C@H]2CCNC2)c(C2CCC(C(F)(F)F)CC2)c1 (stereo partly drawn) in this test?
active

Proceed to Cl.Cl.O=C(Nc1ccc(O[C@@H]2CCNC2)c(-c2cccc(-c3nn[nH]n3)c2)c1)c1ccc(O[C@H]2CCNC2)c(-c2ccc(F)c(F)c2)c1
inactive

How about this compound: Cl.Cl.O=C(Nc1ccc(O[C@@H]2CCNC2)c(-c2cccc(-c3nn[nH]n3)c2)c1)c1ccc(O[C@H]2CCNC2)c(-c2ccc3ccsc3c2)c1
inactive

###

Record form. Attribute: Ki. Fill in for each entry.
- study.target: beta-catenin-B-cell lymphoma 9 protein complex (Homo sapiens, UniProt P35222)
- Sequence (P35222 whole entry, the tested form may be a part): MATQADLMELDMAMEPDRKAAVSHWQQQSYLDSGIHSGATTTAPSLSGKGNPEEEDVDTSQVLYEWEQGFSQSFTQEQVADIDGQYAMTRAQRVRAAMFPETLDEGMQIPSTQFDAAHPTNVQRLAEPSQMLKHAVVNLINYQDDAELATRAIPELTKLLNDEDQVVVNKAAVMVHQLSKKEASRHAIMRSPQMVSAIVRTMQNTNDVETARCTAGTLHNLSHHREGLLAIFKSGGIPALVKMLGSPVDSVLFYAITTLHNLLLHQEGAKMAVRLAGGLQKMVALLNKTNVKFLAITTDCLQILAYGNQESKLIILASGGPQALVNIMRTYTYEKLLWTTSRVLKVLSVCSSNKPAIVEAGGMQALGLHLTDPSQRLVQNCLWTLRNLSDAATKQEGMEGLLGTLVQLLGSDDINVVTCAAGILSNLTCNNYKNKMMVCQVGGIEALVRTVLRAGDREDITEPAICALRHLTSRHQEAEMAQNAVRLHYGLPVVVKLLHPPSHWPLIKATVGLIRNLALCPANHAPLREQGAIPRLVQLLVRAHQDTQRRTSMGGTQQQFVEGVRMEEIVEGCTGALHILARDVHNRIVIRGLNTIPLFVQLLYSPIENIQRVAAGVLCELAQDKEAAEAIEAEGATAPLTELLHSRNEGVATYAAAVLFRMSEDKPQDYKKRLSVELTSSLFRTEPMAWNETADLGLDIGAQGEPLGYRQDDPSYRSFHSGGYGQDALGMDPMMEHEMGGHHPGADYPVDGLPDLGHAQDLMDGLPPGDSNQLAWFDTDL
- Sequence (O00512 whole entry, further chain, the tested form may be a part): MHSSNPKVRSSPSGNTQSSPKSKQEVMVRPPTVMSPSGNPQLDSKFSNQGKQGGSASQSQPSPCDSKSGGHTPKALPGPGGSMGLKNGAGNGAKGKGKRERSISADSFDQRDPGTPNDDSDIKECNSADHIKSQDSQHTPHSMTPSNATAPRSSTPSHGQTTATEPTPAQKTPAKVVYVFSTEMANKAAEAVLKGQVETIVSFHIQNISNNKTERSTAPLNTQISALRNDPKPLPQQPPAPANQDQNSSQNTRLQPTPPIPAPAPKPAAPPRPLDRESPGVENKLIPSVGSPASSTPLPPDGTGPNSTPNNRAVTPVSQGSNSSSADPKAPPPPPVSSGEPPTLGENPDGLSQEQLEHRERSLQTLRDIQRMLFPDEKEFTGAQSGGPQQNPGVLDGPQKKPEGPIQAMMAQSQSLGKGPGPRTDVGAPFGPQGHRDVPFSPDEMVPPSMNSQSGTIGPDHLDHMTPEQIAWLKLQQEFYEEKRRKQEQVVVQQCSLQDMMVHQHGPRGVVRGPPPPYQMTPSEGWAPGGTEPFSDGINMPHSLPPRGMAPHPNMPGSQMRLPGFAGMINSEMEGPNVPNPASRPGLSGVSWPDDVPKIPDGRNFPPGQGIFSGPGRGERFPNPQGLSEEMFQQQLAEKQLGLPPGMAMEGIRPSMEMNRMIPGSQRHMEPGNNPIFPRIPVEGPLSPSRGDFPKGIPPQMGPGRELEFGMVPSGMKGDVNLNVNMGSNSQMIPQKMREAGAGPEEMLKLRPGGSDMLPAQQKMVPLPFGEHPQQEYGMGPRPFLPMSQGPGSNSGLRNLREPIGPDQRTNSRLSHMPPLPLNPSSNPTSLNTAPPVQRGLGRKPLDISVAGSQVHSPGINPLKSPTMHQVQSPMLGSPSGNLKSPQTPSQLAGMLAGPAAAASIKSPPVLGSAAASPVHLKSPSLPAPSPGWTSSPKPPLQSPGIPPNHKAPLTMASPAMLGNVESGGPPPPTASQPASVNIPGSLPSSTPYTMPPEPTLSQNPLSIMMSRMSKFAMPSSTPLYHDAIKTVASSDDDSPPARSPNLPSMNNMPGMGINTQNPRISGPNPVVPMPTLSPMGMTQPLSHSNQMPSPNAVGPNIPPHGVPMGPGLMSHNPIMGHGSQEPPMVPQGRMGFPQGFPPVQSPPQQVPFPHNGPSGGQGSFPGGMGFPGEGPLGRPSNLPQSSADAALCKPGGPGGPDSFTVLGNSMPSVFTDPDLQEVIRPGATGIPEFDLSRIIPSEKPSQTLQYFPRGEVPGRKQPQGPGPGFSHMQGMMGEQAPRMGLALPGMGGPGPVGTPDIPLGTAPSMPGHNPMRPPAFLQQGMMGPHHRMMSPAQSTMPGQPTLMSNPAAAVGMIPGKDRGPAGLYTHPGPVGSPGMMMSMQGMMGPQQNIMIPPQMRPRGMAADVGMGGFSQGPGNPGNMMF
- test.protocol: Inhibition of protein interaction between C-terminal 6x-histidine tagged full-length beta-catenin (1 to 781 residues) (unknown origin)/N-terminal biotinylated human BCL9 ( 350 to 375 residues) incubated for 1 hr by Alpha-screen competitive inhibition assay
- Assay type: protein-complex assay
The reply should be a number in µM, with the unit left off.

Request the reported Ki associated with Cc1cc(F)ccc1-c1cc(NC(=O)c2ccc(O[C@H]3CCNC3)c(-c3ccc(F)c(F)c3)c2)ccc1O[C@H]1CCNC1.Cl.Cl
3.5

Also need Cl.Cl.N#Cc1cccc(-c2cc(NC(=O)c3ccc(O[C@H]4CCNC4)c(-c4ccc(F)c(F)c4)c3)ccc2O[C@H]2CCNC2)c1 , thanks.
4.2

Next record, please: Cl.Cl.O=C(Nc1ccc(O[C@H]2CCNC2)c(-c2ccc(F)cc2)c1)c1ccc(O[C@H]2CCNC2)c(C2CCCCC2)c1
14

Now try Cl.Cl.O=C(Nc1ccc(O[C@H]2CCNC2)c(-c2ccc(F)nc2)c1)c1ccc(O[C@H]2CCNC2)c(-c2ccc(F)c(F)c2)c1 .
16

Queued: Cl.Cl.O=C(Nc1ccc(O[C@H]2CCNC2)c(-c2ccc(F)cc2)c1)c1ccc(O[C@H]2CCNC2)c(-c2ccc3ccsc3c2)c1
1.3

Request: CC(=O)Nc1cccc(-c2cc(NC(=O)c3ccc(O[C@H]4CCNC4)c(-c4ccc(F)c(F)c4)c3)ccc2O[C@H]2CCNC2)c1.Cl.Cl
5.2

Proceed to Cl.Cl.O=C(Nc1ccc(O[C@H]2CCNC2)c(-c2ccc(F)cc2)c1)c1ccc(O[C@H]2CCNC2)c(C2CCC(C(F)(F)F)CC2)c1 (some centres undefined)
4.2

Same question for Cl.Cl.O=C(Nc1ccc(O[C@H]2CCNC2)c(-c2ccccc2C(F)(F)F)c1)c1ccc(O[C@H]2CCNC2)c(-c2ccc(F)c(F)c2)c1 please.
3.8

Moving on to the next compound: Cl.Cl.O=C(Nc1ccc(O[C@H]2CCNC2)c(-c2cccc(-c3nn[nH]n3)c2)c1)c1ccc(O[C@H]2CCNC2)c(-c2ccc(F)c(F)c2)c1
1

Thanks! And Cc1ccccc1-c1cc(NC(=O)c2ccc(O[C@H]3CCNC3)c(-c3ccc(F)c(F)c3)c2)ccc1O[C@H]1CCNC1.Cl.Cl ?
5.9

Another: Cl.Cl.NC(=O)c1ccc(-c2cc(NC(=O)c3ccc(O[C@H]4CCNC4)c(-c4ccc(F)c(F)c4)c3)ccc2O[C@H]2CCNC2)cc1
4.7

Input Cc1cccc(-c2cc(NC(=O)c3ccc(O[C@H]4CCNC4)c(-c4ccc(F)c(F)c4)c3)ccc2O[C@H]2CCNC2)c1.Cl.Cl
3.1

Cl.Cl.O=C(Nc1ccc(O[C@H]2CCNC2)c(-c2ccc(F)cc2)c1)c1cnc(O[C@H]2CCNC2)c(-c2ccc(F)c(F)c2)c1 ?
8.7

Let us now turn to CS(=O)(=O)Nc1cccc(-c2cc(NC(=O)c3ccc(O[C@H]4CCNC4)c(-c4ccc(F)c(F)c4)c3)ccc2O[C@H]2CCNC2)c1.Cl.Cl
5.9

###

- study.target: beta-catenin-B-cell lymphoma 9 protein complex (Homo sapiens) (UniProt P35222+O00512)
- test.protocol: Inhibition of protein interaction between beta-catenin (unknown origin)/BCL9 in HEK293 cells transfected with beta-catenin assessed as reduction in Wnt/beta-catenin transactivation incubated for 24 hrs by Wnt-responsive FOP-Flash luciferase reporter assay
- Assay type: cell-based
Activity calls are given as the source filed them. The rule behind the calls is not given here.
parameter.measured: inhibition

Recorded inhibition, per entry:
Lab note: need inhibition with beta-catenin-B-cell lymphoma 9 protein complex (Homo sapiens) (UniProt P35222+O00512) for entry Cl.Cl.O=C(Nc1ccc(O[C@H]2CCNC2)c(-c2ccc(F)cc2)c1)c1cnc(O[C@H]2CCNC2)c(-c2ccc(F)c(F)c2)c1 , please look it up.
Active

Field entry: Cc1cc(F)ccc1-c1cc(NC(=O)c2ccc(O[C@H]3CCNC3)c(-c3ccc(F)c(F)c3)c2)ccc1O[C@H]1CCNC1.Cl.Cl
Active

Now give it for Cl.Cl.O=C(Nc1cnc(O[C@H]2CCNC2)c(-c2ccc(F)cc2)c1)c1ccc(O[C@H]2CCNC2)c(-c2ccc(F)c(F)c2)c1 too.
Active

What about this compound? Cc1ccccc1-c1cc(NC(=O)c2ccc(O[C@H]3CCNC3)c(-c3ccc(F)c(F)c3)c2)ccc1O[C@H]1CCNC1.Cl.Cl
Active

Okay, and Cl.Cl.O=C(Nc1ccc(O[C@H]2CCNC2)c(-c2ccc(F)cc2)c1)c1ccc(O[C@H]2CCNC2)c(C2=CCCCC2)c1 ?
Active

Others:
// map Cl.Cl.O=C(Nc1ccc(O[C@H]2CCNC2)c(-c2ccc(F)cc2)c1)c1ccc(O[C@H]2CCNC2)c(-c2ccc3cc(F)ccc3c2)c1 to recorded inhibition (system: beta-catenin-B-cell lymphoma 9 protein complex (Homo sapiens) (UniProt P35222+O00512))
Active

Same again, this time with Fc1ccc(-c2cc(-c3cnc4cc(O[C@H]5CCNC5)c(-c5ccc(F)c(F)c5)cc4c3)ccc2O[C@H]2CCNC2)cc1
Active

Also check Cl.Cl.O=C(Nc1ccc(O[C@H]2CCNC2)c(-c2ccc(F)cc2)c1)c1ccc(O[C@H]2CCNC2)c(-c2ccc3ccsc3c2)c1
Active

And Cl.Cl.Fc1ccc(-c2cc(-c3ccc4cc(O[C@H]5CCNC5)c(-c5ccc(F)c(F)c5)cc4n3)ccc2O[C@H]2CCNC2)cc1 ?
Active

Same again, this time with Cl.Cl.O=C(Nc1ccc(O[C@H]2CCNC2)c(-c2ccc(F)cc2)c1)c1ccc(O[C@H]2CCNC2)c(-c2ccc(F)c(F)c2)c1
Active

###

- test.protocol: Inhibition of protein interaction between beta-catenin D145A/E155A mutant (unknown origin)/N-terminal biotinylated human BCL9 ( 350 to 375 residues) incubated for 1 hr by Alpha-screen competitive inhibition assay
I'd appreciate it if you could supply Ki values for the items below.
Field format: number, assumed µM, no unit text.

Returns the measured Ki for the input molecule. Input: Cl.Cl.O=C(Nc1ccc(O[C@H]2CCNC2)c(-c2ccc(F)cc2)c1)c1ccc(O[C@H]2CCNC2)c(-c2ccc3ccsc3c2)c1
12

Please give the result for Cl.Cl.O=C(Nc1ccc(O[C@H]2CCNC2)c(-c2cccc(-c3nn[nH]n3)c2)c1)c1ccc(O[C@H]2CCNC2)c(-c2ccc(F)c(F)c2)c1 too.
18

And then Cl.Cl.O=C(Nc1ccc(O[C@@H]2CCNC2)c(-c2cccc(-c3nn[nH]n3)c2)c1)c1ccc(O[C@H]2CCNC2)c(-c2ccc(F)c(F)c2)c1 , what is it?
12

###

For each record, write down the corresponding IC50.
- Tested on: A549
- test.protocol: Cytotoxicity in human A549 cells assessed as reduction in cell viability incubated for 72 hrs by MTS assay
- Type: functional, cell-based
- condition: A549, 72 h
Supply the numeric figure in µM, leaving out any unit text.

Given the compound Cl.Cl.O=C(Nc1ccc(O[C@H]2CCNC2)c(-c2ccc(F)cc2)c1)c1ccc(O[C@H]2CCNC2)c(C2CCC(C(F)(F)F)CC2)c1 (some centres not stated) , what is its reported IC50?
4.8

And what about the compound Cl.Cl.O=C(Nc1cnc(O[C@H]2CCNC2)c(-c2ccc(F)cc2)c1)c1ccc(O[C@H]2CCNC2)c(-c2ccc(F)c(F)c2)c1 ?
29

// query: Fc1ccc(-c2cc(-c3cnc4cc(O[C@H]5CCNC5)c(-c5ccc(F)c(F)c5)cc4c3)ccc2O[C@H]2CCNC2)cc1
7.5

Then this compound: Cl.Cl.O=C(Nc1ccc(O[C@H]2CCNC2)c(-c2ccc(F)cc2)c1)c1ccc(O[C@H]2CCNC2)c(-c2ccc3ccsc3c2)c1
9.4

Same thing, different compound: Cl.Cl.O=C(Nc1ccc(O[C@@H]2CCNC2)c(-c2cccc(-c3nn[nH]n3)c2)c1)c1ccc(O[C@H]2CCNC2)c(-c2ccc3ccsc3c2)c1
430

Continue with Cc1cc(F)ccc1-c1cc(NC(=O)c2ccc(O[C@H]3CCNC3)c(-c3ccc(F)c(F)c3)c2)ccc1O[C@H]1CCNC1.Cl.Cl
10

Then what about the compound Cl.Cl.Fc1ccc(-c2cc(-c3ccc4cc(O[C@H]5CCNC5)c(-c5ccc(F)c(F)c5)cc4n3)ccc2O[C@H]2CCNC2)cc1 ?
23
